Exercise: for every item that follows, state its recorded SI (selectivity index for hMAO-B over hMAO-A).
system: hMAO-B (Homo sapiens, UniProt P27338)
Construct: purchased Sigma-Aldrich
Sequence (P27338 1-520): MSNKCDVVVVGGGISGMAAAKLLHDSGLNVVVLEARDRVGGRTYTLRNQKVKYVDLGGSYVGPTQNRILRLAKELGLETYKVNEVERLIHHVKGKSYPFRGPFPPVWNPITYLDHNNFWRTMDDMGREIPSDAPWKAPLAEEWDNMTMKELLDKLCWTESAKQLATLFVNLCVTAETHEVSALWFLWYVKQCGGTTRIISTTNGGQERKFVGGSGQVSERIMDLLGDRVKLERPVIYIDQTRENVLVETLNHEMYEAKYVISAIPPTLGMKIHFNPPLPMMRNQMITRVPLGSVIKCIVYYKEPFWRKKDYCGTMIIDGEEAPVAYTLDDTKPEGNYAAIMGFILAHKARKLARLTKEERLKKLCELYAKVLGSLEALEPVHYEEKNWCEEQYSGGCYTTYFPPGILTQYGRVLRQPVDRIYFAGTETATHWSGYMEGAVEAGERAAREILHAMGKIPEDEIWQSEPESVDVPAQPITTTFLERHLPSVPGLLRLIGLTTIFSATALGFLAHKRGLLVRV
assay.name: hMAO-B inhibition, recombinant enzyme, kynuramine substrate, fluorescence
Format: biochemical
condition.notes: IC50 hMAO-A/IC50 hMAO-B
// return just the number, without any unit appended

Ask: // lookup SI (selectivity index for hMAO-B over hMAO-A) for CC#CCOc1ccc2oc(=O)ccc2c1 [Compound 4, 6-(But-2-yn-1-yloxy)-2H-chromen-2-one]
Reply: 4.6

Ask: // lookup SI (selectivity index for hMAO-B over hMAO-A) for CC#CCOc1ccc2ccc(=O)oc2c1 [Compound 6, 7-(But-2-yn-1-yloxy)-2H-chromen-2-one]
Reply: 85.3

Ask: // lookup SI (selectivity index for hMAO-B over hMAO-A) for C#CCCCCOc1cc(=O)oc2ccccc12 [Compound 2, 4-(Hex-5-yn-1-yloxy)-2H-chromen-2-one]
Reply: 0.42

Ask: // lookup SI (selectivity index for hMAO-B over hMAO-A) for C#CCCCCOc1ccc2ccc(=O)oc2c1 [Compound 9, 7-(Hex-5-yn-1-yloxy)-2H-chromen-2-one]
Reply: 92.8

###

system: hCA XII (Homo sapiens)
assay.name: stopped flow CO2 hydrase assay, hCA XII
Format: biochemical
condition.notes: mean of 3 different assays
pKi: −log10 of the molar value.
Is pKi at least 8? Then Fulfilled. If not, Not fulfilled.

Ask: Can C#CCCCOc1cc(=O)oc2ccccc12 be said to have pKi at or above 8?
Reply: Fulfilled

Ask: Can C#CCCCCOc1cc(=O)oc2ccccc12 be said to have pKi at or above 8?
Reply: Fulfilled

Ask: Can C#CCOc1ccc2ccc(=O)oc2c1 be said to have pKi at or above 8?
Reply: Not fulfilled

Ask: Can CC#CCOc1ccc2oc(=O)ccc2c1 be said to have pKi at or above 8?
Reply: Fulfilled

###

system: BuChE (equine serum) (Equus caballus, UniProt P81908)
Sequence (P81908 whole entry): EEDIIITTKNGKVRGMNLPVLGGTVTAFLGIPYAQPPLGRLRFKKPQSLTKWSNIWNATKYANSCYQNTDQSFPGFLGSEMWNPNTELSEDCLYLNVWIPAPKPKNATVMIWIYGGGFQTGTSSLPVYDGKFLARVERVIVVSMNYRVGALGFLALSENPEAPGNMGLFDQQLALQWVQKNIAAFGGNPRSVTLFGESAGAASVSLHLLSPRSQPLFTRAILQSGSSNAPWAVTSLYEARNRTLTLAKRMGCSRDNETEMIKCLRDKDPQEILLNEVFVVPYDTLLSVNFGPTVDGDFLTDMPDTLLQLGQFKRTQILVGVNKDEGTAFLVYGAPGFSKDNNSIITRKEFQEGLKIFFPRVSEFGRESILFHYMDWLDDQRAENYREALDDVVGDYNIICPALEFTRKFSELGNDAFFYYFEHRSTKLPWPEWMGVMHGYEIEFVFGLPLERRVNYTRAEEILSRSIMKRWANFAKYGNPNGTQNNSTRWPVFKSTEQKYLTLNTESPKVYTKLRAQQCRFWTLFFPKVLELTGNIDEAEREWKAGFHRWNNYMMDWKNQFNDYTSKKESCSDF
assay.name: biochemical
condition.notes: mean ± SD of triplicate determinations
pIC50: −log10 of the molar value.
measure.name: pIC50

Ask: // lookup pIC50 for C#CCOc1ccc2ccc(=O)oc2c1
Reply: < 4.00

Ask: // lookup pIC50 for CC#CCOc1ccc2ccc(=O)oc2c1
Reply: < 4.00

Ask: // lookup pIC50 for C#CCOc1ccc2oc(=O)ccc2c1
Reply: < 4.00

Ask: // lookup pIC50 for CC#CCOc1ccc2oc(=O)ccc2c1
Reply: < 4.00

Ask: // lookup pIC50 for C#CCCCOc1cc(=O)oc2ccccc12
Reply: 4.48

Ask: // lookup pIC50 for C#CCCCCOc1cc(=O)oc2ccccc12
Reply: 4.68

Ask: // lookup pIC50 for C#CCCCCOc1ccc2ccc(=O)oc2c1
Reply: 4.29

Ask: // lookup pIC50 for C#CCCCOc1ccc2ccc(=O)oc2c1
Reply: < 4.00

###

system: hCA XII (Homo sapiens, UniProt O43570)
Sequence (O43570 25-354): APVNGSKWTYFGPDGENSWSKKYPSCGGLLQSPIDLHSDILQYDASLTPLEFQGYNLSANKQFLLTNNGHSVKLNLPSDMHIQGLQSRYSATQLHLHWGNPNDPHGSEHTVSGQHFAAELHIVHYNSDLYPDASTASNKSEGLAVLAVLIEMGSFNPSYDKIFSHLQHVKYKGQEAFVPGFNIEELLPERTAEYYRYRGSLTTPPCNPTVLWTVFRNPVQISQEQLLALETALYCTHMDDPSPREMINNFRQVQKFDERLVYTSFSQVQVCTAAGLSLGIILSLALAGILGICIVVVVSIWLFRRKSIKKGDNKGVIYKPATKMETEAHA
assay.name: stopped flow CO2 hydrase assay, hCA XII
Assay type: biochemical
condition.notes: mean of 3 different assays
Exercise: for every item that follows, state its recorded pKi.
Schema: pKi number; meaning minus log10 of the concentration expressed in molar units.

Ask: // lookup pKi for CC#CCOc1ccc2ccc(=O)oc2c1
Reply: 8.17

Ask: // lookup pKi for C#CCCCOc1ccc2ccc(=O)oc2c1
Reply: 8.19

Ask: // lookup pKi for C#CCCCCOc1ccc2ccc(=O)oc2c1
Reply: 8.23
